IC50 values by entry
# test_target: Ubiquitin carboxyl-terminal hydrolase 30 (Homo sapiens)
# assay_protocol: inhibitors of ubiquitin-specific protease 30 deubiquitylating enzyme, concentration dependence, in vitro biochemical, validation of primary hits (AID 1645865)
# particulars: purified USP30, Ub-rhodamine cleavage, fluorescence, 2 h
Active and inactive are the calls of the source.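 How the source made its calls: active means maximal inhibition of the USP30 enzyme reaching 30% or more across the dose series; inactive means the rest.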

CCCCCC(O)c1c(O)cc2c(c1O)C(=O)c1c(O)cc(O)cc1C2=O (stereo unspecified) :: > 50 µM (inactive)
CCOc1ccc(C(=O)Cn2c(=O)n(CC3CCCO3)c(=O)c3cc(OC)c(OC)cc32)cc1Cl (stereo unspecified) :: 25.8 µM
CCOC(=O)c1cc2c(ccn2C)n1Cc1cccc2ccccc12 :: > 50 µM (inactive)
CSc1ncc(C(=O)NC(C)c2ccccc2)c(-c2ccccc2)n1 (stereo unspecified) :: 21.9 µM
COc1cc(NC(=O)Cc2ccccc2)ccc1NC(=O)c1cc2ccccc2o1 :: 2.32 µM

[ask] Return value of IC50 for input `O=C(O)c1nccnc1C(=O)N1CCc2ccccc2C1` , no commentary.
[reply] > 50 µM (inactive)

[ask] Return value of IC50 for input `COc1ccc(CCNC(=O)CCn2c(=O)c3ccccc3n(Cc3ccc(C)cc3)c2=O)cc1OC` , no commentary.
[reply] 25.4 µM

[ask] Return value of IC50 for input `O=C(CNC(=O)c1cccc(F)c1)Nc1nc2ccccc2[nH]1` , no commentary.
[reply] 21.7 µM

[ask] Return value of IC50 for input CC1CC[C@@]2(NC1)O[C@H]1C[C@H]3[C@@H]4CC=C5C[C@@H](O)CC[C@]5(C)[C@H]4CC[C@]3(C)[C@H]1[C@@H]2C (stereo partly specified) , no commentary.
[reply] 13 µM
